- experimental system: T1, human CXCR2 (human, UniProt P25025 1-360)
- T1 sequence: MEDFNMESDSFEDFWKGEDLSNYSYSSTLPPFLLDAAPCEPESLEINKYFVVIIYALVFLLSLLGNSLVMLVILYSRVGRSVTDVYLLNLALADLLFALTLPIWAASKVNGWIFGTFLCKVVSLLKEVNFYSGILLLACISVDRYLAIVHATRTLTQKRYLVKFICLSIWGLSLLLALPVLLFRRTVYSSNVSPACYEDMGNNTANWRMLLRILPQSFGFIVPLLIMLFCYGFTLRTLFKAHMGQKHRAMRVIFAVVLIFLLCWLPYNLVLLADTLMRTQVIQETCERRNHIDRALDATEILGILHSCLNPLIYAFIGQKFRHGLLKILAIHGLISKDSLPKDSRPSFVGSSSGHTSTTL
- assay protocol: cell-based or functional assay
test readout: IC50, CXCL1, Tango assay (nM)
Please respond with the number in nM and leave the unit unwritten.

Request: Given BKO-4A8 variant VL N95aQ (antibody, human IgG4 S228P, lambda, V domains shown, IgG4 S228P, lambda; parental heavy chain; also called 4A8 VL N95aQ) VH: EVQLLESGGGLVQPGGSLRLSCAASGFTFSSSTMSWVRQAPGKGLEWVSAISGRGRNTYYADSVKGRFTISRDNSRNTLYLQMNSLRAEDTAVYYCAIQMGYWGQGILVTVSS VL: QSALTQPPSASGSPGQSVTISCIGTSSDVGGYNYVSWYQQHPDKAPKLMIYEVNKRPSGVPDRFSGSKSGNTASLTVSGLQAEDEADYYCSSYAGNNQFGVFGGGTKLTVLG , respond with its IC50, CXCL1, Tango assay.
Response: 0.213

Request: Let me know recorded IC50, CXCL1, Tango assay for BKO-4A8 variant VH M96K (antibody, human IgG4 S228P, lambda, V domains shown, IgG4 S228P, lambda; parental light chain; also called 4A8 VH M96K) VH: EVQLLESGGGLVQPGGSLRLSCAASGFTFSSSTMSWVRQAPGKGLEWVSAISGRGRNTYYADSVKGRFTISRDNSRNTLYLQMNSLRAEDTAVYYCAIQKGYWGQGILVTVSS VL: QSALTQPPSASGSPGQSVTISCIGTSSDVGGYNYVSWYQQHPDKAPKLMIYEVNKRPSGVPDRFSGSKSGNTASLTVSGLQAEDEADYYCSSYAGNNNFGVFGGGTKLTVLG , thanks.
Response: 0.135

Request: Check the records and state IC50, CXCL1, Tango assay for BKO-4A8 variant VH M96A (antibody, human IgG4 S228P, lambda, V domains shown, IgG4 S228P, lambda; parental light chain; also called 4A8 VH M96A) VH: EVQLLESGGGLVQPGGSLRLSCAASGFTFSSSTMSWVRQAPGKGLEWVSAISGRGRNTYYADSVKGRFTISRDNSRNTLYLQMNSLRAEDTAVYYCAIQAGYWGQGILVTVSS VL: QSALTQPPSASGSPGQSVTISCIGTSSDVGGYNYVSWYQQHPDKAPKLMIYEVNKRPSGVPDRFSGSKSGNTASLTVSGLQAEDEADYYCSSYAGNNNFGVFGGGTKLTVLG
Response: 0.14
